The values you see were collected from patent US9566265B2.

test system: p53; assay: p53 activation assay, p53 responsive luciferase reporter cell line; assay type: cell-based, human; details: Homo sapiens; HT1080-L or RCC45ConALuc reporter cells, 16 h; read-out: EC50 value (p53 activation)
MEASURED_QUANTITY: EC50 (nM)
Enter your answer as a number in nM; do not include the unit.

Please review the entries below; each comes with its answer.
Exercise: Please look up its EC50: `CCN(CC)CCCn1c2ccc([N+](=O)[O-])cc2c2cc([N+](=O)[O-])ccc21`
Solution: 880

Exercise: Please look up its EC50: CC(=O)c1ccc2c(c1)c1cc(C(C)=O)ccc1n2CCC1CCCN1C (stereo not shown)
Solution: 640

Exercise: Please look up its EC50: `CNCCCn1c2ccc([N+](=O)[O-])cc2c2cc([N+](=O)[O-])ccc21`
Solution: 880

Would you kindly look at the next entry?
Exercise: Please look up its EC50: `O=[N+]([O-])c1ccc2c(c1)c1cc([N+](=O)[O-])ccc1n2CCCN1CCCC1`
Solution: 780

* * *

test: in vivo; conditions: nude, mouse, po
The reader will find reported MTD at 4 weeks values listed item by item below.
Enter your answer as a number in mg/kg/day; do not include the unit.

Exercise: Please look up its MTD at 4 weeks: `CCCNCCCn1c2ccc(C(C)=O)cc2c2c3c(ccc21)C(=O)CC3`
Solution: 25

Further cases:
Exercise: Please look up its MTD at 4 weeks: `CCN(CC)CCn1c2ccc3c(c2c2c4c(ccc21)C(=O)CC4)CCC3=O`
Solution: 5
